Data origin: patent US12527774B2

Target: ERRα ligand binding domain (ERRα-LBD) (Homo sapiens (Human), UniProt P11474)
Sequence (P11474 193-421): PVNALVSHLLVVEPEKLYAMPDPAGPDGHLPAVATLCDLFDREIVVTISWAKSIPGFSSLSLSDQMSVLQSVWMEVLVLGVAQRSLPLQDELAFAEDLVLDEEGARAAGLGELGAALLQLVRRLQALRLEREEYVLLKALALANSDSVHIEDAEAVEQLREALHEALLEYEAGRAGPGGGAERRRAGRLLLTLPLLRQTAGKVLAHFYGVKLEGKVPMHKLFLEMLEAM
Test: ERRα AlphaScreen Assay
Assay type: biochemical
Conditions: disruption of binding of ERRα-LBD protein to biotin-PGC1α-3 co-activator peptide; read-out: mean pIC50 (converted)
value.type: IC50

IC50 for O=C1CC(c2cnc(OCc3ccccc3C(F)(F)F)nc2)c2c[nH]nc2N1 (stereo not shown) [Example 165] is 100 to 1000 nM

IC50 for Nc1cc(C2CC(=O)Nc3n[nH]cc32)ccc1OCc1ccccc1C(F)(F)F (stereo not shown) [Example 161] is 100 to 1000 nM

IC50 for COc1cc(C2CC(=O)Nc3n[nH]cc32)ccc1OCc1cccc(Br)c1 (stereo not shown) [Example 11] is 100 to 1000 nM

IC50 for COc1cc(C2CC(=O)Nc3n[nH]cc32)ccc1COc1cc(C(F)F)cc(C(F)(F)F)c1 (stereo not shown) [Example 118] is 100 to 1000 nM

IC50 for COc1cc(C2CC(=O)Nc3n[nH]cc32)ccc1OCc1c(F)cccc1C(F)(F)F (stereo not shown) [Example 21] is 100 to 1000 nM

IC50 for COc1cc(C2CC(=O)Nc3n[nH]cc32)ccc1OCc1ccccc1Cl (stereo not shown) [Example 2] is 10 to 100 nM

IC50 for COc1cc(C2CC(=O)N(C)c3n[nH]cc32)ccc1OCc1ccccc1C(F)(F)F (stereo not shown) [Example 86] is 100 to 1000 nM

IC50 for COc1cc(C2CC(=O)Nc3n[nH]cc32)ccc1COc1cc(C)cc(C(F)(F)F)c1 (stereo not shown) [Example 114] is 100 to 1000 nM

IC50 for COc1cc(C2CC(=O)Nc3n[nH]cc32)ccc1OCc1cccc2ccsc12 (stereo not shown) [Example 45] is 10 to 100 nM

IC50 for COc1ccc([N+](=O)[O-])cc1COc1ccc(C2CC(=O)Nc3n[nH]cc32)cc1OC (stereo not shown) [Example 25] is 100 to 1000 nM

====

Molecular target: ERRα ligand binding domain (ERRα-LBD) (Homo sapiens (Human), UniProt P11474)
Assay: ERRα AlphaScreen Assay
Assay type: biochemical
Settings: disruption of binding of ERRα-LBD protein to biotin-PGC1α-3 co-activator peptide; read-out: mean pIC50 (converted)
value.type: IC50

IC50 for Cc1cc(C2CC(=O)Nc3n[nH]cc32)ccc1OCc1ccccc1C(F)(F)F (stereo not shown) is 10 to 100 nM

IC50 for COc1cc(C2CC(=O)Nc3n[nH]cc32)ccc1COc1ccc(C(F)F)cc1C(F)F (single isomer, unassigned; (+)) [Example 217] is 100 to 1000 nM

IC50 for COc1cc(C2CC(=O)Nc3n[nH]cc32)cc(F)c1OCc1ccccc1C(F)(F)F (stereo not shown) is 100 to 1000 nM

IC50 for `COc1ccc([N+](=O)[O-])cc1COc1ccc(-c2cc(=O)[nH]c3n[nH]cc23)cc1OC` is 10 to 100 nM

IC50 for COc1cc(C2CC(=O)Nc3ccsc32)ccc1OCc1ccccc1Cl (stereo not shown) is 100 to 1000 nM

IC50 for COc1cc(C2CC(=O)Nc3n[nH]cc32)ccc1COc1ccc(C(F)(F)F)cc1C(F)F (single isomer, unassigned; (+)) [Example 215] is 100 to 1000 nM

IC50 for COc1cc(C2CC(=O)Nc3n[nH]cc32)ccc1OCc1ccc(S(C)(=O)=O)cc1C(F)(F)F (stereo not shown) is 100 to 1000 nM

====

Molecular target: ERRα ligand binding domain (ERRα-LBD) (Homo sapiens (Human))
Test: ERRα AlphaScreen Assay
Type: biochemical
Conditions: disruption of binding of ERRα-LBD protein to biotin-PGC1α-3 co-activator peptide; read-out: mean pIC50 (converted)
Description: This assay was based on the knowledge that nuclear receptors interact with cofactors in a ligand dependent matter. The sites of interaction have been mapped to LXXLL motifs that are present in the co-activator sequences. […] The AlphaScreen signal was measured using an Envision Xcite plate reader (Perkin Elmer). […] As multiple IC50 values were annotated for the same compound-protein pair, a mean pIC50 for each compound was determined.
value.type: IC50

IC50 for CCc1cc(C2CC(=O)Nc3n[nH]cc32)ccc1OCc1ccccc1C(F)(F)F (centres unmarked) is 10 to 100 nM

IC50 for COc1cc(C2CC(=O)Nc3n[nH]cc32)c(F)cc1OCc1ccccc1C(F)(F)F (centres unmarked) is 10 to 100 nM

IC50 for `COc1cc(-c2cc(=O)[nH]c3n[nH]cc23)ccc1OCc1ccccc1` is 100 to 1000 nM

IC50 for CCCOC(=O)c1ccccc1COc1ccc(C2CC(=O)Nc3n[nH]cc32)cc1OC (centres unmarked) is 100 to 1000 nM

IC50 for CCOC(=O)c1ccccc1COc1ccc(C2CC(=O)Nc3n[nH]cc32)cc1OC (centres unmarked) is 100 to 1000 nM

IC50 for COc1cc(C2CC(=O)Nc3n[nH]cc32)ccc1COc1ccc(C)cc1C (single isomer, unassigned; (+)) [Example 219] is 100 to 1000 nM

IC50 for COc1cc(C2CC(=O)Nc3c[nH]cc32)ccc1COc1ccc(C(F)(F)F)cc1C(F)(F)F (centres unmarked) is 10 to 100 nM

IC50 for COc1cc(C2CC(=O)Nc3n[nH]cc32)ccc1COc1ccc(C(F)(F)F)cc1C(F)F (single isomer, unassigned; (-)) [Example 216] is 10 to 100 nM

====

Give measured IC50 for each item. Keep answers brief.
Target: ERRα ligand binding domain (ERRα-LBD) (Homo sapiens (Human), UniProt P11474)
Assay: ERRα AlphaScreen Assay
Assay type: biochemical
Conditions: disruption of binding of ERRα-LBD protein to biotin-PGC1α-3 co-activator peptide; read-out: mean pIC50 (converted)

IC50 for C#Cc1ccccc1COc1ccc(C2CC(=O)Nc3n[nH]cc32)cc1OC (centres unmarked) [Example 44] is 10 to 100 nM

IC50 for O=C1CC(c2ccc(COc3ccc(Br)cc3C(F)(F)F)c(OC(F)(F)F)c2)c2c[nH]nc2N1 (centres unmarked) [Example 106] is 10 to 100 nM

IC50 for O=C1CC(c2ccc(COc3ccccc3C(F)(F)F)c(OC(F)(F)F)c2)c2c[nH]nc2N1 (centres unmarked) [Example 108] is 10 to 100 nM

IC50 for COc1cc(C2CC(=O)Nc3n[nH]cc32)ccc1OCc1ccc(C(=O)O)cc1C(F)(F)F (centres unmarked) [Example 120] is 100 to 1000 nM

IC50 for COc1cc(C2CC(=O)Nc3n[nH]cc32)ccc1OCc1cc(C(F)(F)F)ccc1C(F)(F)F (centres unmarked) [Example 14] is 10 to 100 nM

IC50 for COc1cc(C2CC(=O)Nc3n[nH]cc32)ccc1OCc1ccccc1Br (centres unmarked) [Example 4] is 10 to 100 nM

IC50 for O=C1CC(c2ccc(OCc3ccccc3C(F)(F)F)c(C(=O)OCCO)c2)c2c[nH]nc2N1 (centres unmarked) [Example 132] is 100 to 1000 nM

IC50 for COc1cc(C2CC(=O)Nc3n[nH]cc32)ccc1COc1ccc(C)cc1C (centres unmarked) [Example 111] is 10 to 100 nM

====

Molecular target: ERRα ligand binding domain (ERRα-LBD) (Homo sapiens (Human), UniProt P11474)
Assay: ERRα AlphaScreen Assay
Format: biochemical
Conditions: disruption of binding of ERRα-LBD protein to biotin-PGC1α-3 co-activator peptide; read-out: mean pIC50 (converted)
Give measured IC50 for each item. Keep answers brief.

IC50 for COc1cc(C2CC(=O)Nc3n[nH]cc32)ccc1OCc1cccc2cccnc12 (stereo not shown) is 100 to 1000 nM

IC50 for COc1cc(C2CC(=O)Nc3c[nH]nc32)ccc1OCc1ccccc1C(F)(F)F (stereo not shown) is 10 to 100 nM

IC50 for COC(=O)c1cc(C2CC(=O)Nc3n[nH]cc32)ccc1OCc1ccccc1C(F)(F)F (stereo not shown) is 10 to 100 nM

IC50 for COc1cc(C2CC(=O)Nc3nn(C)cc32)ccc1OCc1ccccc1C(F)(F)F (stereo not shown) is 100 to 1000 nM

IC50 for NC(=O)c1cc(C2CC(=O)Nc3n[nH]cc32)ccc1OCc1ccccc1C(F)(F)F (stereo not shown) is 100 to 1000 nM

IC50 for O=C1CC(c2ccc(COc3ccccc3S(F)(F)(F)(F)F)c(OC(F)(F)F)c2)c2c[nH]nc2N1 (stereo not shown) is 10 to 100 nM

IC50 for COc1cc(C2CC(=O)Nc3n[nH]nc32)ccc1OCc1ccc(C(C)=O)cc1C(F)(F)F (stereo not shown) is 10 to 100 nM

IC50 for COc1cc(C2CC(=O)Nc3n[nH]cc32)ccc1OCc1ccc([N+](=O)[O-])cc1C(F)(F)F (stereo not shown) is 10 to 100 nM

IC50 for CCOC(=O)c1cc(C2CC(=O)Nc3n[nH]cc32)ccc1OCc1ccccc1C(F)(F)F (stereo not shown) is 10 to 100 nM

IC50 for COc1cc(C2CC(=O)Nc3ccsc32)ccc1OCc1ccccc1C(F)(F)F (stereo not shown) is 10 to 100 nM

IC50 for COCCOc1cc(C2CC(=O)Nc3n[nH]cc32)ccc1OCc1ccccc1C(F)(F)F (stereo not shown) is 10 to 100 nM

IC50 for COc1cc(C2CC(=O)Nc3n[nH]cc32)ccc1OCc1ccc(N)cc1C(F)(F)F (single isomer, unassigned; (+)) is 10 to 100 nM

IC50 for COc1cc(C2CC(=O)Nc3n[nH]cc32)ccc1COc1ccc(Cl)cc1C(F)(F)F (single isomer, unassigned; (+)) is 10 to 100 nM

IC50 for COc1cc(C2CC(=O)Nc3n[nH]cc32)ccc1OCc1cc(Cl)cc(Cl)c1Cl (stereo not shown) is 100 to 1000 nM

IC50 for COc1cc(C2CC(=O)Nc3n[nH]cc32)ccc1OCc1ccc(CCO)cc1C(F)(F)F (single isomer, unassigned; (+)) is 10 to 100 nM

IC50 for `COc1ccccc1COc1ccc(-c2cc(=O)[nH]c3n[nH]cc23)cc1OC` is 10 to 100 nM

IC50 for COc1cc(C2CC(=O)Nc3n[nH]cc32)ccc1OCc1ccc(O)cc1C(F)(F)F (single isomer, unassigned; (+)) is 10 to 100 nM

IC50 for COc1cc(C2CC(=O)Nc3n[nH]cc32)ccc1COc1cc(C)cc(C)c1 (stereo not shown) is 100 to 1000 nM

IC50 for COCCCOc1cc(C2CC(=O)Nc3n[nH]cc32)ccc1OCc1ccccc1C(F)(F)F (stereo not shown) is 10 to 100 nM

IC50 for `COc1cc(Br)c(COc2ccc(-c3cc(=O)[nH]c4n[nH]cc34)cc2OC)cc1OC` is 100 to 1000 nM

IC50 for O=C1CC(c2ccc(COc3ccc(C(F)(F)F)cc3C(F)(F)F)c(OC(F)(F)F)c2)c2c[nH]nc2N1 (stereo not shown) is 10 to 100 nM

IC50 for COc1cc(C2CC(=O)Nc3n[nH]c(F)c32)ccc1OCc1ccccc1C(F)(F)F (stereo not shown) is 100 to 1000 nM

IC50 for O=C1CC(c2ccc(OCc3ccccc3C(F)(F)F)cn2)c2c[nH]nc2N1 (stereo not shown) is 100 to 1000 nM

IC50 for COc1ccc(C(F)(F)F)c(COc2ccc(C3CC(=O)Nc4n[nH]cc43)cc2OC)c1 (stereo not shown) is 10 to 100 nM

IC50 for COc1cc(C2CC(=O)Nc3n[nH]cc32)ccc1OCc1ccc(CC(C)(C)O)cc1C(F)(F)F (stereo not shown) is 10 to 100 nM

IC50 for O=C1CC(c2ccc(OCc3ccccc3C(F)(F)F)c(Cl)c2)c2c[nH]nc2N1 (stereo not shown) is 10 to 100 nM

IC50 for O=C1CC(c2ccc(COc3ccc(F)cc3C(F)(F)F)c(OC(F)(F)F)c2)c2c[nH]nc2N1 (stereo not shown) is 100 to 1000 nM

IC50 for COc1cc(C2CC(=O)Nc3n[nH]cc32)ccc1COc1ccc(Br)cc1C(F)(F)F (stereo not shown) is ≤ 10 nM

IC50 for CCCCOC(=O)c1ccccc1COc1ccc(C2CC(=O)Nc3n[nH]cc32)cc1OC (stereo not shown) is 100 to 1000 nM

IC50 for COC(=O)C1C(=O)Nc2n[nH]cc2C1c1ccc(COc2ccc(C(F)(F)F)cc2C(F)(F)F)c(OC)c1 (stereo not shown) is 100 to 1000 nM

IC50 for COc1cc(C2CC(=O)Nc3n[nH]cc32)ccc1COc1ccc(C(F)F)cc1C(F)F (stereo not shown) [Example 116] is 10 to 100 nM
